src = ChEMBL document CHEMBL2440072

# method description: Plasma clearance in rat at 0.5 mg/kg, iv and 1 mg/kg, po
# Assay type: ADME, organism-based
Readings of clearance for the listed molecules

| molecule | clearance (mL/min/kg) |
| --- | --- |
| Cc1cc(F)ccc1[C@H]1C[C@@H](N2CCN3C(=O)CC[C@H]3C2)CCN1C(=O)N(C)[C@H](C)c1cc(C(F)(F)F)cc(C(F)(F)F)c1 [ORVEPITANT] | 29 |
| Cc1cc(F)ccc1[C@H]1C[C@H](N2CCN3C(=O)CC[C@H]3C2)CCN1C(=O)N(C)[C@H](C)c1cc(C(F)(F)F)cc(C(F)(F)F)c1 | 25 |
| CC(=O)N1CCN([C@H]2CCN(C(=O)N(C)[C@H](C)c3cc(C(F)(F)F)cc(C(F)(F)F)c3)[C@@H](c3ccc(F)cc3C)C2)CC1 | 37 |
